Examples of compounds with documented pIC50 follow.
Test system: pancreatic cancer cell lines (e.g. MIA PaCa-2)
procedureDetails: Cell based assay, cell viability (CellTiter-Glo), pancreatic cancer cell lines
conditionParameters: Homo sapiens, pancreatic cancer cell line Capan-1, 72 hours, read-out: IC50, Capan-1
pIC50: −log10 of the molar value.

// known answers, use as guide
Summary: COC(=O)c1ccc(C[S+]([O-])c2[nH]c3c(Cl)ccc(Cl)c3c(=O)c2C(C)=O)o1 (stereo not drawn) [Compound 89] , pancreatic cancer cell lines (e.g. MIA PaCa-2), pIC50 = < 5.70

So the reported pIC50 for CC(=O)c1c(S(C)(=O)=O)n(C(=O)c2ccc(Br)cc2)c2c(Br)ccc(Cl)c2c1=O [Compound 21] , on pancreatic cancer cell lines (e.g. MIA PaCa-2), turned out to be < 5.70

The compound CC(=O)c1c(S(=O)(=O)Cc2ccccc2)nc2c(Br)ccc(Cl)c2c1O [Compound 54] , when measured on pancreatic cancer cell lines (e.g. MIA PaCa-2), yielded pIC50 of < 5.70

Continuing:
Entry CC(=O)c1c(Sc2ccccc2)[nH]c2c(Br)ccc(Cl)c2c1=O [Compound 12] under pancreatic cancer cell lines (e.g. MIA PaCa-2) had pIC50 of < 5.70

Log: pancreatic cancer cell lines (e.g. MIA PaCa-2), compound CC(=O)c1c([S+]([O-])Cc2ccc(S(F)(F)(F)(F)F)cc2)[nH]c2c(Br)ccc(Cl)c2c1=O (stereo not drawn) [Compound 68] , pIC50 = < 5.70

Record for COc1ccccc1[S+]([O-])c1[nH]c2c(Br)ccc(Cl)c2c(=O)c1C(C)=O (stereo not drawn) [Compound 15] under target or system pancreatic cancer cell lines (e.g. MIA PaCa-2): pIC50 reported as < 5.70

# CC(=O)c1c([S+]([O-])Cc2cc(C)on2)[nH]c2c(F)ccc(F)c2c1=O (stereo not drawn) [Compound 82] with pancreatic cancer cell lines (e.g. MIA PaCa-2): pIC50 is < 5.70

Record CC(=O)c1c([S+](C)[O-])n(C(C)=O)c2c(Br)ccc(Cl)c2c1=O (stereo not drawn) [Compound 19] ; system pancreatic cancer cell lines (e.g. MIA PaCa-2); pIC50 = < 5.70

Value source: patent US11464770B2
